All figures here come from PubChem BioAssay (NCI).

Tested on: SW-620 colon
EXPERIMENT_DESCRIPTION: NCI tumour cell line growth inhibition, 48 h; in the data active means GI50 below about 0.43 µM; inactive means the rest
Classes used: active, inactive

[
  {
    "COMPOUND": "CC1(C)OB(c2ccc(N(CCOS(C)(=O)=O)CCOS(C)(=O)=O)cc2)OC1(C)C",
    "CLASS_LABEL": "inactive"
  },
  {
    "COMPOUND": "Cc1c(C)c2c(c(C)c1OC(=O)CCC(=O)[O-])CCC(C)(CCCCCCCCCCC[P+](c1ccccc1)(c1ccccc1)c1ccccc1)O2 (stereo unspecified)",
    "CLASS_LABEL": "active"
  },
  {
    "COMPOUND": "O=C(Nc1ccc(OS(=O)(=O)c2ccc(F)cc2)cc1)C12CC3CC(CC(C3)C1)C2",
    "CLASS_LABEL": "inactive"
  },
  {
    "COMPOUND": "Clc1ccc(-c2cc(-c3ccccc3)nc(N3CCN(CCCNc4ccnc5cc(Cl)ccc45)CC3)n2)cc1",
    "CLASS_LABEL": "inactive"
  },
  {
    "COMPOUND": "CCOC(=O)/C(=C/CC/C(C)=C/CC/C(C)=C/CCc1ccoc1)CC(=O)N1CCCCC1",
    "CLASS_LABEL": "inactive"
  },
  {
    "COMPOUND": "O=C1c2c(O)cccc2C(C(=O)CCCCCC(=O)C2c3cccc(O)c3C(=O)c3c(O)cccc32)c2cccc(O)c21",
    "CLASS_LABEL": "inactive"
  },
  {
    "COMPOUND": "O=C(NC1CCN(Cc2ccccc2)CC1)c1cc(-c2cccnc2)nc2ccc(Cl)cc12",
    "CLASS_LABEL": "inactive"
  },
  {
    "COMPOUND": "NC(N)=NN=c1c(=O)c2ccccc2c1=O",
    "CLASS_LABEL": "inactive"
  },
  {
    "COMPOUND": "COc1ccc(-n2cc(-c3cc(OC)c(OC)c(OC)c3)nc2SCc2ccc(Cl)cc2)cc1OC",
    "CLASS_LABEL": "inactive"
  },
  {
    "COMPOUND": "COc1ccc(-c2nn(-c3cccc(Cl)c3)cc2/C=C2\\NC(=S)N(c3ccc(Cl)cc3)C2=O)cc1",
    "CLASS_LABEL": "inactive"
  },
  {
    "COMPOUND": "Cc1nc2ccccn2c1NC(=O)NN1C(=O)CSC1c1ccc(Cl)cc1 (stereo unspecified)",
    "CLASS_LABEL": "inactive"
  },
  {
    "COMPOUND": "C=CC(=O)N[C@@H]1CN(c2nc(Nc3cn(C)nc3OC)c3ncn(C)c3n2)C[C@H]1F",
    "CLASS_LABEL": "inactive"
  },
  {
    "COMPOUND": "O=CC(OC(=O)c1ccccc1)C(OC(=O)c1ccccc1)C(COC(c1ccccc1)(c1ccccc1)c1ccccc1)OC(=O)c1ccccc1 (stereo unspecified)",
    "CLASS_LABEL": "inactive"
  },
  {
    "COMPOUND": "C[C@@H](Nc1nc(N[C@H](C)C(F)(F)F)nc(-c2cccc(Cl)n2)n1)C(F)(F)F",
    "CLASS_LABEL": "inactive"
  },
  {
    "COMPOUND": "CNC(=O)c1cc(Oc2ccc3nc(NC(=O)Nc4ccc(CN5CCOCC5)c(C(F)(F)F)c4)sc3c2)ccn1",
    "CLASS_LABEL": "inactive"
  },
  {
    "COMPOUND": "CCn1cnc(C[C@H](NC(=O)[C@H](CCCCNC(=O)Nc2cc(C(F)(F)F)cc(C(F)(F)F)c2)NC(=O)Nc2cc(C(F)(F)F)cc(C(F)(F)F)c2)C(=O)OC)c1",
    "CLASS_LABEL": "inactive"
  }
]
